Experiment: Acute toxicity on intragastric administration
Assay type: in vivo
Conditions: mouse, in vivo, po
Readout Kind: LD50

So for Cc1ccc2c(c1)c1c(n2CCc2ccc(C)nc2)CCN(C)C1 [dimebon] , the logged LD50 turned out to be > 1000 mg/kg
